# remaining activity at 5 µM annotations
Molecular target: PIM1 (Homo sapiens, UniProt P11309)
Sequence (P11309 whole entry, species assumed): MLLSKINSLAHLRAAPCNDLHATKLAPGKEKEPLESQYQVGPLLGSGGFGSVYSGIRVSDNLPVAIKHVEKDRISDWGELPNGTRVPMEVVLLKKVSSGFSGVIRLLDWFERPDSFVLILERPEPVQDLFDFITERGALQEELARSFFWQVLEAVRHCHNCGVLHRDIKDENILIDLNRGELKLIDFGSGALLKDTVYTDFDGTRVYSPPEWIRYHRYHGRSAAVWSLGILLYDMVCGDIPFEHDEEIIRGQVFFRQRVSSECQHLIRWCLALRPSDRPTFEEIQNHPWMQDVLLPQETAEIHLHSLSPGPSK
Assay: Radiometric (P81 filter isotopic) kinase assay, PIM1
Type: biochemical
Conditions: 5 µM compound; read-out: Residual Activity of the Enzyme PIM1
readout.kind: remaining activity at 5 µM

- OCCCn1cnc2c(Br)c(Br)c(Br)c(Br)c21 [Compound 2]: 17.2%
- O=C(O)c1ccc2c(c1)nc(Nc1cccc(Cl)c1)c1ccncc12 [CX-4945, silmitasertib, reference compound]: 2.3%
- CCCC(=O)OCCCn1cnc2c(Br)c(Br)c(Br)c(Br)c21 [Compound 3a]: 65%
- Cc1nc2c(Br)c(Br)c(Br)c(Br)c2[nH]1 [Compound 4, reference compound]: 8%
- Cc1nc2c(Br)c(Br)c(Br)c(Br)c2n1CCCO [Compound 5]: 9.3%
- CCCCCCCC(=O)OCCCn1cnc2c(Br)c(Br)c(Br)c(Br)c21 [Compound 3c]: 99.1%
- CCCCCC(=O)OCCCn1c(C)nc2c(Br)c(Br)c(Br)c(Br)c21 [Compound 6b]: 62.4%
- CCCCCC(=O)OCCCn1cnc2c(Br)c(Br)c(Br)c(Br)c21 [Compound 3b]: 85%
- CCCCCCCC(=O)OCCCn1c(C)nc2c(Br)c(Br)c(Br)c(Br)c21 [Compound 6c]: 95.2%
- CCCC(=O)OCCCn1c(C)nc2c(Br)c(Br)c(Br)c(Br)c21 [Compound 6a]: 38.8%
